Reference source: the supplement of paper PMC11780869

System: Bacillus subtilis
experimental-protocol: cleaved RNA product abundance (RNA/gDNA barcode ratio) relative to median wild-type variant (ratio to wild type); higher = more accumulation of the downstream cleavage product
test-context: experiment (reporter, strain, medium): exp 8a: truncated aprE reporter, strain BJT201 with 2% xylose (RNase J1 expressed); cleavage site: glnRA (positions -5 to +31 mutated)
quantity-measured: cleaved RNA product abundance

Consider the reported cleaved RNA product abundance for these sequences:
For CGACATGTCCCGCTTCTTTCATTAATCCATTAGCAACTGTTTTGCTATATACATTTACGTTTTAAGAGGAGGAAT on Bacillus subtilis, measured cleaved RNA product abundance was 0.903

Item: CGACATGTCCCGCTTCTTTCATTAATCCCTTAGCAACTGTTTTTCTATATACATTTACCTTTTAAGAGGAGGAAT | System: Bacillus subtilis | cleaved RNA product abundance: 0.163

Now look at this entry.
Value (cleaved RNA product abundance, Bacillus subtilis) for record CGACATGTCCCGCTTCTTTCATTAATCTGTTAGCAACTGTTTTGCTATATAAATTTACCTTTTAAGAGGAGGAAT = 0.994
